Test system: Puccinia triticina; synonym: Puccinia recondita f. sp. tritici (PUCCRT)
Assay: Wheat brown rust (PUCCRT) whole-plant fungicidal test
Format: in vivo
Details: topical, 72 h, low volume (track spray) application, 121.5 g/H, 3 Day Curative, read-out: Low Volume activity at 121.5 g/H PUCCRT 3DC (% disease control rating)
Method: All fungicides were evaluated using the aforementioned method for their activity vs. all target diseases, unless stated otherwise. Wheat leaf blotch and brown rust activity were also evaluated using track spray applications, in which case the fungicides were formulated as EC formulations, containing 0.1% Trycol 5941 in the spray solutions. […] Percent disease control was calculated using the ratio of disease severity on treated plants relative to untreated plants. […]
RECORDED METRIC: pest or weed control at 121.5 g/ha

>>> measured("COc1ccnc(C(=O)N[C@H]2CCC[C@H](Cc3ccc(C(F)(F)F)cc3)[C@@H](Cc3ccccc3)[C@H](C)OC2=O)c1OC(C)=O")
"< 70%"
>>> measured("CCOCC(=O)OCOc1c(OC)ccnc1C(=O)N[C@H]1CCC[C@H](CCC(C)C)[C@@H](CCc2ccccc2)[C@H](C)OC1=O")
"< 70%"
>>> measured("CCOCC(=O)OCOc1c(OC)ccnc1C(=O)N[C@H]1CCC[C@H](Cc2ccccc2)[C@@H](CCc2ccccc2)[C@H](C)OC1=O")
"> 70%"
>>> measured("COc1ccnc(C(=O)N[C@H]2CCC[C@H](CC3CC3)[C@@H](Cc3ccccc3)[C@H](C)OC2=O)c1OCOC(C)=O")
"> 70%"
>>> measured("COc1ccnc(C(=O)N[C@H]2CCC[C@H](Cc3ccc(Cl)cc3)[C@@H](CC(C)C)[C@H](C)OC2=O)c1OC(C)=O")
"< 70%"

* * *

System: Puccinia triticina; synonym: Puccinia recondita f. sp. tritici (PUCCRT)
Experiment: Wheat brown rust (PUCCRT) whole-plant fungicidal test
Type: in vivo
Conditions: topical, 72 h, low volume (track spray) application, 121.5 g/H, 3 Day Curative, read-out: Low Volume activity at 121.5 g/H PUCCRT 3DC (% disease control rating)
RECORDED METRIC: pest or weed control at 121.5 g/ha

>>> measured("CCC[C@H]1CCC[C@H](NC(=O)c2nccc(OC)c2OC(C)=O)C(=O)O[C@@H](C)[C@@H]1c1ccccc1")
"> 70%"
>>> measured("COc1ccnc(C(=O)N[C@H]2CCC[C@H](Cc3ccc(C(F)(F)F)cc3)[C@@H](Cc3ccccc3)[C@H](C)OC2=O)c1OCOC(=O)C(C)C")
"< 70%"
>>> measured("COc1ccnc(C(=O)N[C@H]2CCC[C@H](Cc3ccccc3)[C@@H](C3CCCC3)[C@H](C)OC2=O)c1OC(C)=O")
"< 70%"
>>> measured("CCCC[C@@H]1[C@@H](Cc2ccc(C(F)(F)F)cc2)CCC[C@H](NC(=O)c2nccc(OC)c2OCOC(C)=O)C(=O)O[C@H]1C")
"< 70%"
>>> measured("COc1ccnc(C(=O)N[C@H]2CCC[C@H](Cc3ccccc3)[C@@H](Cc3ccc(F)cc3)[C@H](C)OC2=O)c1OCOC(C)=O")
"< 70%"
>>> measured("COc1ccnc(C(=O)N[C@H]2CCC[C@H](Cc3ccc(C(F)(F)F)cc3)[C@@H](Cc3ccc(F)cc3)[C@H](C)OC2=O)c1OCOC(=O)C(C)C")
"< 70%"
